Recorded inhibition at 2 µM by entry
- assayed_target: human NTPDase8 (Homo sapiens)
- Construct: expressed in transfected cells; host or cells: COS-7 cells (membrane preparation)
- Sequence (Q5MY95 1-495): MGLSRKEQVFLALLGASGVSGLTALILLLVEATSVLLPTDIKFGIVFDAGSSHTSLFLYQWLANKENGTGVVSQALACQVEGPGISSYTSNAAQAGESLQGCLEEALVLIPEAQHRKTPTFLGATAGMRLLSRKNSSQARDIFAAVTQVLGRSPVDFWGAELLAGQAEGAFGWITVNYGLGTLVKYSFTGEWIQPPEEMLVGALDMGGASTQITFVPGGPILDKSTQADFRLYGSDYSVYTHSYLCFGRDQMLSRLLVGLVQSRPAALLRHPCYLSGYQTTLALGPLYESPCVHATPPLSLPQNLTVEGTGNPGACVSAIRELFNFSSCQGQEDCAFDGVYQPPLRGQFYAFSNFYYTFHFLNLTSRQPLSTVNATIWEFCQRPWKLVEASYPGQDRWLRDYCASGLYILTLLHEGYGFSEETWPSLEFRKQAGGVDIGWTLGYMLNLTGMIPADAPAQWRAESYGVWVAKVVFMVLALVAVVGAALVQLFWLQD
- run_description: Malachite green assay, human NTPDase8
- Format: biochemical
- settings: 2 μM compound; 100 µM ATP; COS-7 membrane preparation; read-out: % inhibition at 2 μM concentration, NTPDase8
reported_metric: inhibition at 2 µM (%)

- molecule: "Nc1c(S(=O)(=O)O)cc(Nc2ccc(Cc3ccccc3)cc2)c2c1C(=O)c1ccccc1C2=O [Compound 43]"
  reported_metric: "inhibition at 2 µM"
  endpoint_value: 3
- molecule: "Cc1ccc(Sc2ccc(Nc3cc(S(=O)(=O)O)c(N)c4c3C(=O)c3ccccc3C4=O)cc2)cc1C [Compound 51]"
  reported_metric: "inhibition at 2 µM"
  endpoint_value: 27
- molecule: "Nc1c(S(=O)(=O)O)cc(Nc2cccc(Cc3ccccc3)c2)c2c1C(=O)c1ccccc1C2=O [Compound 39]"
  reported_metric: "inhibition at 2 µM"
  endpoint_value: 28
- molecule: "Nc1c(S(=O)(=O)O)cc(Nc2ccc(Sc3ccccc3)c(Cl)c2)c2c1C(=O)c1ccccc1C2=O [Compound 48]"
  reported_metric: "inhibition at 2 µM"
  endpoint_value: 14
- molecule: "Nc1c(S(=O)(=O)O)cc(Nc2ccc(S(=O)(=O)O)c(Nc3nc(Cl)nc(Cl)n3)c2)c2c1C(=O)c1ccccc1C2=O [Compound 42]"
  reported_metric: "inhibition at 2 µM"
  endpoint_value: -7
- molecule: "Nc1c(S(=O)(=O)O)cc(Nc2cccc3ccccc23)c2c1C(=O)c1ccccc1C2=O [Compound 15]"
  reported_metric: "inhibition at 2 µM"
  endpoint_value: 9
- molecule: "Nc1c(S(=O)(=O)[O-])cc(Nc2ccccc2CO)c2c1C(=O)c1ccccc1C2=O.[Na+] [Compound 27]"
  reported_metric: "inhibition at 2 µM"
  endpoint_value: 4

###

Catalogue of molecules with associated inhibition at 2 µM
- assayed_target: human NTPDase8 (Homo sapiens, UniProt Q5MY95)
- Construct: expressed in transfected cells; host or cells: COS-7 cells (membrane preparation)
- Sequence (Q5MY95 1-495): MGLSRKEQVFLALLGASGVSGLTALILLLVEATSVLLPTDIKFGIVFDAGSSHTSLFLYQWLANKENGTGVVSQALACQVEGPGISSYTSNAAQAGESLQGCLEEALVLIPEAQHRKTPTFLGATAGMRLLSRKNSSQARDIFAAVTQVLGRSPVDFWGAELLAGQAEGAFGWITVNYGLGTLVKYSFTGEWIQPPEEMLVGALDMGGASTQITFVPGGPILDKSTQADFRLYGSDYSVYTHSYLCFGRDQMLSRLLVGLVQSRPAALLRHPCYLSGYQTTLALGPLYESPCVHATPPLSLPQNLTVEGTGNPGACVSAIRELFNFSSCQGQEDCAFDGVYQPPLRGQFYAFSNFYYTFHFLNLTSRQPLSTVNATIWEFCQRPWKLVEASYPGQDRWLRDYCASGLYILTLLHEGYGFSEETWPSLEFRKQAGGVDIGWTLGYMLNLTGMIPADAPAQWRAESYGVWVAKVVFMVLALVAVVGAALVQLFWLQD
- run_description: Malachite green assay, human NTPDase8
- Format: biochemical
- settings: 2 μM compound; 100 µM ATP; COS-7 membrane preparation; read-out: % inhibition at 2 μM concentration, NTPDase8

- chemical_string: "Nc1c(S(=O)(=O)[O-])cc(Nc2ccc(CO)cc2)c2c1C(=O)c1ccccc1C2=O.[Na+]"
  inhibition at 2 µM, %: -4
- chemical_string: "Nc1ccc(Nc2cc(S(=O)(=O)O)c(N)c3c2C(=O)c2ccccc2C3=O)cc1S(=O)(=O)O"
  inhibition at 2 µM, %: -20
- chemical_string: "Nc1c(S(=O)(=O)O)cc(Nc2cccc(Oc3ccccc3)c2)c2c1C(=O)c1ccccc1C2=O"
  inhibition at 2 µM, %: 9
- chemical_string: "O=C(O)c1cc(Nc2cc(S(=O)(=O)O)cc3c2C(=O)c2ccccc2C3=O)ccc1O"
  inhibition at 2 µM, %: 5

###

- assayed_target: human NTPDase8 (Homo sapiens)
- Construct: expressed in transfected cells; host or cells: COS-7 cells (membrane preparation)
- Sequence (Q5MY95 1-495): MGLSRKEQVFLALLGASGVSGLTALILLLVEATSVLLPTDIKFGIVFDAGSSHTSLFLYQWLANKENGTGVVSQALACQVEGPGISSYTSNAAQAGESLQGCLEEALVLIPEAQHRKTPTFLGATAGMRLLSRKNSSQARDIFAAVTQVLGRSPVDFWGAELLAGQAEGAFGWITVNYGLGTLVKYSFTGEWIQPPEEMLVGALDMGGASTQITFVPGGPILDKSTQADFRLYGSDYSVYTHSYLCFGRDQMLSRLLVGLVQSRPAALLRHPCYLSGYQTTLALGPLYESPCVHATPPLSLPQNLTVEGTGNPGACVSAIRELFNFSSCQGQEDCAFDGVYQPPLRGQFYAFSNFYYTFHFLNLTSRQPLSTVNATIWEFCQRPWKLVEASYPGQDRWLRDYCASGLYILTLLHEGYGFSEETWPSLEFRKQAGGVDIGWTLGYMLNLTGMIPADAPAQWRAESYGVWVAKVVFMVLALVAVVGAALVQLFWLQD
- run_description: Malachite green assay, human NTPDase8
- Type: biochemical
- settings: 2 μM compound; 100 µM ATP; COS-7 membrane preparation; read-out: % inhibition at 2 μM concentration, NTPDase8
- Method: Membrane preparations expressing human NTPDase1, -2, -3, or -8, respectively, were obtained as previously described ([Sévigny et al., 1997]; [Cogan et al., 1999]; [Kukulski et al., 2005]; [Lecka et al., 2013]; [Lee et al., 2018]). […] The released inorganic phosphate was quantified after 20 min of gentle shaking at 25°C by measuring the absorption of the malachite green-phosphomolybdate complex at 600 nm using a BMG PheraStar FS plate reader (BMG Labtech GmbH, Ortenberg, Germany). […]
inhibition at 2 µM for assorted compounds

- compound: "Nc1c(S(=O)(=O)O)cc(Nc2ccc(Sc3ccccc3)cc2)c2c1C(=O)c1ccccc1C2=O [Compound 44]"
  assayed_target: "human NTPDase8 (Homo sapiens)"
  inhibition at 2 µM (%): 6
- compound: "Nc1c(S(=O)(=O)O)cc(Nc2ccc(Cl)cc2C(=O)O)c2c1C(=O)c1ccccc1C2=O [Compound 36]"
  assayed_target: "human NTPDase8 (Homo sapiens)"
  inhibition at 2 µM (%): -17
- compound: "Nc1c(S(=O)(=O)O)cc(Nc2cccc(C(=O)O)c2)c2c1C(=O)c1ccccc1C2=O [Compound 26]"
  assayed_target: "human NTPDase8 (Homo sapiens)"
  inhibition at 2 µM (%): -17
- compound: "Cc1ccc(C)c(Sc2ccc(Nc3cc(S(=O)(=O)O)c(N)c4c3C(=O)c3ccccc3C4=O)cc2)c1 [Compound 50]"
  assayed_target: "human NTPDase8 (Homo sapiens)"
  inhibition at 2 µM (%): 17
- compound: "Nc1c(S(=O)(=O)O)cc(Nc2ccc(O)c(C(=O)O)c2)c2c1C(=O)c1ccccc1C2=O [Compound 33]"
  assayed_target: "human NTPDase8 (Homo sapiens)"
  inhibition at 2 µM (%): -9
- compound: "Nc1c(S(=O)(=O)O)cc(Nc2cccc([N+](=O)[O-])c2)c2c1C(=O)c1ccccc1C2=O [Compound 24]"
  assayed_target: "human NTPDase8 (Homo sapiens)"
  inhibition at 2 µM (%): 3
- compound: "Nc1c(S(=O)(=O)[O-])cc(Nc2cccc(I)c2)c2c1C(=O)c1ccccc1C2=O.[Na+] [Compound 23]"
  assayed_target: "human NTPDase8 (Homo sapiens)"
  inhibition at 2 µM (%): 4
- compound: "Nc1c(S(=O)(=O)O)cc(Nc2cccc(F)c2)c2c1C(=O)c1ccccc1C2=O [Compound 21]"
  assayed_target: "human NTPDase8 (Homo sapiens)"
  inhibition at 2 µM (%): -1
- compound: "Nc1c(S(=O)(=O)O)cc(Nc2cccc3cccc(S(=O)(=O)O)c23)c2c1C(=O)c1ccccc1C2=O [Compound 17]"
  assayed_target: "human NTPDase8 (Homo sapiens)"
  inhibition at 2 µM (%): -11
- compound: "Nc1c(S(=O)(=O)[O-])cc(Nc2cccc(Cl)c2Cl)c2c1C(=O)c1ccccc1C2=O.[Na+] [Compound 34]"
  assayed_target: "human NTPDase8 (Homo sapiens)"
  inhibition at 2 µM (%): 7
- compound: "CCc1cccc(Nc2cc(Br)c(N)c3c2C(=O)c2ccccc2C3=O)c1 [Compound 53]"
  assayed_target: "human NTPDase8 (Homo sapiens)"
  inhibition at 2 µM (%): -4
- compound: "Nc1c(S(=O)(=O)[O-])cc(Nc2cccc(Sc3ccccc3)c2)c2c1C(=O)c1ccccc1C2=O.[Na+] [Compound 41]"
  assayed_target: "human NTPDase8 (Homo sapiens)"
  inhibition at 2 µM (%): 6
- compound: "Nc1ccc(Nc2cc(S(=O)(=O)O)c(N)c3c2C(=O)c2ccccc2C3=O)cc1 [Compound 25]"
  assayed_target: "human NTPDase8 (Homo sapiens)"
  inhibition at 2 µM (%): -12
- compound: "Nc1c(S(=O)(=O)[O-])cc(Nc2cccc(CO)c2)c2c1C(=O)c1ccccc1C2=O.[Na+] [Compound 28]"
  assayed_target: "human NTPDase8 (Homo sapiens)"
  inhibition at 2 µM (%): 1
- compound: "Nc1c(S(=O)(=O)O)cc(Nc2ccc(Oc3ccc(Br)cc3)cc2)c2c1C(=O)c1ccccc1C2=O [Compound 46]"
  assayed_target: "human NTPDase8 (Homo sapiens)"
  inhibition at 2 µM (%): 10
